Test system: Arthrobacter 2 (Arthrobacter humicola)
measurement protocol: relative growth (AUC of 72 h growth curve relative to DMSO control, dAUC) (ratio); higher = more growth (less inhibition), active = hit call of the paper
run parameters: 20 µM

- chem smiles: "COP(=O)(OC)OC=C(Cl)Cl"
  relative growth: 0.86
- chem smiles: "N#Cc1c[nH]cc1-c1cccc2c1OC(F)(F)O2"
  relative growth: 0.824
- chem smiles: "O=C(Nc1ccc(F)cc1F)c1cccnc1Oc1cccc(C(F)(F)F)c1"
  relative growth: 1

###

Test system: Microbacterium 1 (Microbacterium arborescens)
measurement protocol: relative growth (AUC of 72 h growth curve relative to DMSO control, dAUC) (ratio); higher = more growth (less inhibition), active = hit call of the paper
run parameters: 20 µM
Decide using relative growth: a value greater than or equal to 1 is 1.0, a smaller one is 0.0.

- compound: "COCC(=O)N(c1c(C)cccc1C)[C@H](C)C(=O)OC"
  category label: 1.0
- compound: "CCOc1ccc(C(C)(C)COCc2cccc(Oc3ccccc3)c2)cc1"
  category label: 1.0
- compound: "CS(=O)(=O)NC(=O)c1cc(Oc2ccc(C(F)(F)F)cc2Cl)ccc1[N+](=O)[O-]"
  category label: 1.0
- compound: "N#CC(CCc1ccc(Cl)cc1)(Cn1cncn1)c1ccccc1 (configuration not stated)"
  category label: 0.0
- compound: "CS(=O)(=O)c1ccc(C(=O)C2C(=O)CCCC2=O)c([N+](=O)[O-])c1"
  category label: 1.0
- compound: "CC(C)N1C(=O)N(c2ccccc2)CS/C1=N\\C(C)(C)C"
  category label: 1.0
- compound: "Cc1ccc(/N=C/N(C)/C=N/c2ccc(C)cc2C)c(C)c1"
  category label: 1.0
- compound: "CCSC(C)CC1CC(=O)C(/C(CC)=N/OC/C=C/Cl)=C(O)C1 (mixture of isomers)"
  category label: 1.0
- compound: "CC(C)(C)c1ccc(CSc2cnn(C(C)(C)C)c(=O)c2Cl)cc1"
  category label: 1.0
- compound: "Cc1cc(C)nc(Nc2ccccc2)n1"
  category label: 1.0
- compound: "COCC(C)N(C(=O)CCl)c1c(C)csc1C (configuration not stated)"
  category label: 1.0
- compound: "CC1(C)C(C(=O)OC(C#N)c2cccc(Oc3ccccc3)c2)C1(C)C (configuration not stated)"
  category label: 1.0
- compound: "CCOP(=S)(OCC)Oc1cc(C)nc(C(C)C)n1"
  category label: 0.0
- compound: "O=C1C=C(N(Cc2ccc(Cl)nc2)CC(F)F)CO1"
  category label: 1.0
- compound: "COc1ccc(-c2ccccc2)cc1NNC(=O)OC(C)C"
  category label: 1.0
- compound: "CCCN(CCC)C(=O)SCc1ccccc1"
  category label: 1.0
- compound: "CC1(C)[C@H](C(=O)O[C@H](C#N)c2cccc(Oc3ccccc3)c2)[C@@H]1C=C(Br)Br"
  category label: 1.0
- compound: "CC1COC(Cn2cncn2)(c2ccc(Oc3ccc(Cl)cc3)cc2Cl)O1 (configuration not stated)"
  category label: 0.0
- compound: "O=C(NC(=O)c1c(F)cccc1F)Nc1ccc(Cl)cc1"
  category label: 1.0

Provenance of the data: the supplement of paper PMC12067926
